Entries annotated with measured IC50
- target_system: wild type RET (Homo sapiens)

[
  {
    "compound": "Cc1cc(Nc2cc(C)[nH]n2)nc([C@@H]2CC[C@H](C(=O)N[C@@H](C)c3ccc(-n4cc(F)cn4)nc3)C2)n1 (single isomer, unassigned)",
    "target_system": "wild type RET (Homo sapiens)",
    "IC50": "10 to 100 nM"
  },
  {
    "compound": "Cc1cc(Nc2cc(C)[nH]n2)nc([C@@H]2CC[C@](C)(C(=O)N[C@@H](C)c3ccc(-n4cc(F)cn4)nc3)C2)n1",
    "target_system": "wild type RET (Homo sapiens)",
    "IC50": "> 100 nM"
  },
  {
    "compound": "Cc1cc(Nc2cc(C3CC3)[nH]n2)nc([C@@]2(O)CC[C@H](C(=O)NCc3ccc(-n4cc(F)cn4)nc3)C2)c1",
    "target_system": "wild type RET (Homo sapiens)",
    "IC50": "< 10 nM"
  },
  {
    "compound": "Cc1cc(Nc2cc(C)[nH]n2)nc([C@]2(O)CC[C@H](C(=O)NCc3ccc(-n4cccn4)nc3)C2)c1",
    "target_system": "wild type RET (Homo sapiens)",
    "IC50": "10 to 100 nM"
  },
  {
    "compound": "Cc1cc(Nc2cc(C)[nH]n2)nc([C@@]2(O)CC[C@H](C(=O)N[C@@H](C)c3cnc(-n4cc(F)cn4)cn3)C2)c1",
    "target_system": "wild type RET (Homo sapiens)",
    "IC50": "< 10 nM"
  },
  {
    "compound": "Cc1cc(Nc2cc(C)[nH]n2)nc(C2(O)CCC(C(=O)NCc3ccc(-n4nc(C)cc4C)nc3)C2)c1 (mixture of isomers)",
    "target_system": "wild type RET (Homo sapiens)",
    "IC50": "< 10 nM"
  },
  {
    "compound": "Cc1cc(Nc2cc(C)[nH]n2)nc([C@@]2(O)CC[C@@H](C(=O)NCc3ccc(-n4cccn4)nc3)C2)c1",
    "target_system": "wild type RET (Homo sapiens)",
    "IC50": "10 to 100 nM"
  },
  {
    "compound": "Cc1cc(Nc2cc(C)[nH]n2)nc([C@]2(O)CC[C@H](C(=O)N[C@@H](C)c3ccc(-n4cc(F)cn4)nc3)C2)c1",
    "target_system": "wild type RET (Homo sapiens)",
    "IC50": "10 to 100 nM"
  },
  {
    "compound": "Cc1cc(Nc2cc(C)[nH]n2)nc(C2CCC(C(=O)N[C@@H](C)c3ccc(-n4cc(F)cn4)nc3)C2)n1 (mixture of isomers)",
    "target_system": "wild type RET (Homo sapiens)",
    "IC50": "< 10 nM"
  },
  {
    "compound": "Cc1cc([C@@H]2CC[C@@](C)(C(=O)N[C@@H](C)c3ccc(-n4cc(F)cn4)nc3)C2)nc(Nc2cc(C)[nH]n2)n1 (single isomer, unassigned)",
    "target_system": "wild type RET (Homo sapiens)",
    "IC50": "< 10 nM"
  },
  {
    "compound": "Cc1cc(Nc2cc(C)[nH]n2)nc([C@@H]2CC[C@@](C)(C(=O)N[C@@H](C)c3ccc(-n4cc(F)cn4)nc3)C2)n1",
    "target_system": "wild type RET (Homo sapiens)",
    "IC50": "< 10 nM"
  },
  {
    "compound": "Cc1cc(Nc2cc(C)[nH]n2)nc(C2(O)CCC(C(=O)N[C@@H](C)c3ccc(-n4cc(F)cn4)nc3)C2)c1 (stereo partly drawn)",
    "target_system": "wild type RET (Homo sapiens)",
    "IC50": "< 10 nM"
  }
]

###

- target_system: RET V804L (Homo sapiens, UniProt P07949, V804L)
- Sequence (P07949 29-1114 V804L): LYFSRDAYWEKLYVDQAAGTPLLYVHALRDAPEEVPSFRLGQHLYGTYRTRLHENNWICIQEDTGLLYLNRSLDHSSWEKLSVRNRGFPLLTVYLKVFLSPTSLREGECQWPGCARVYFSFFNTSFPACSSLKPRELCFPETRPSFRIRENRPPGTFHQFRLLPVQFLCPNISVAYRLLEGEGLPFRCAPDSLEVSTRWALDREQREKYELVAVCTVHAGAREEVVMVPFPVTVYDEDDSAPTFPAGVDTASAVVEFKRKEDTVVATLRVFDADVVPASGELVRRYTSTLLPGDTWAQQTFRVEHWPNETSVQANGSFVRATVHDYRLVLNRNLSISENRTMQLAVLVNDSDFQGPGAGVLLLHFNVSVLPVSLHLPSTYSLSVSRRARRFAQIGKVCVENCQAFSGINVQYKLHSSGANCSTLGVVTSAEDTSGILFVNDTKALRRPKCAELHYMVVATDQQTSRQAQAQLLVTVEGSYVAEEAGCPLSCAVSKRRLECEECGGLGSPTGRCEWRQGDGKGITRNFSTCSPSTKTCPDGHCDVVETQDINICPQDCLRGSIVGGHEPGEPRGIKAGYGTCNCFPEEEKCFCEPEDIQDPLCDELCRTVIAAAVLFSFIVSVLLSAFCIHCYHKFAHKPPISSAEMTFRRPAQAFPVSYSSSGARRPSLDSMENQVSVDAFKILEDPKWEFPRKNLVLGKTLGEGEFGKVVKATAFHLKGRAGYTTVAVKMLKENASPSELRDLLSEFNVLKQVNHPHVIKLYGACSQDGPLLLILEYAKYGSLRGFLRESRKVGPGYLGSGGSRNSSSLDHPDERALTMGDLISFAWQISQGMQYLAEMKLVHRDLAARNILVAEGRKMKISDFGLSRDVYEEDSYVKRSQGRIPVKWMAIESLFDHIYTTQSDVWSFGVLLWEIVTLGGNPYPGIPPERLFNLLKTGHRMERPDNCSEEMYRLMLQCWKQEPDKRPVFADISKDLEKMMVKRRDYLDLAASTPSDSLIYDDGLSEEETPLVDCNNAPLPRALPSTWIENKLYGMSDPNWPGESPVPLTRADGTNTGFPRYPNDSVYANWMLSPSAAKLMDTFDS
- protocol_details: RET V804L Gatekeeper Mutant Assay at KM (Caliper electrophoretic mobility shift)
- assay_context: 10 μM ATP, 25° C., 120 minutes
pIC50: −log10 of the molar value.
measured_parameter: pIC50

[
  {
    "compound": "Cc1cc(Nc2cc(C)[nH]n2)nc([C@H]2CC[C@H](C(=O)N[C@@H](C)c3ccc(-n4cc(F)cn4)nc3)C2)n1 (single isomer, unassigned)",
    "target_system": "RET V804L (Homo sapiens, UniProt P07949, V804L)",
    "measured_parameter": "pIC50",
    "measured": "> 8.00"
  },
  {
    "compound": "Cc1cc(Nc2cc(C)[nH]n2)nc([C@]2(O)CC[C@@](C)(C(=O)N[C@@H](C)c3ccc(-n4cc(F)cn4)nc3)C2)c1",
    "target_system": "RET V804L (Homo sapiens, UniProt P07949, V804L)",
    "measured_parameter": "pIC50",
    "measured": "> 8.00"
  },
  {
    "compound": "Cc1cc(Nc2cc(C)[nH]n2)nc([C@@H]2CC[C@](C)(C(=O)N[C@@H](C)c3ccc(-n4cc(F)cn4)nc3)C2)n1",
    "target_system": "RET V804L (Homo sapiens, UniProt P07949, V804L)",
    "measured_parameter": "pIC50",
    "measured": "7.00 to 8.00"
  }
]

###

- target_system: wild type RET (Homo sapiens, UniProt P07949)
- Sequence (P07949 29-1114): as the sequence (P07949 29-1114 V804L) above, with L776V counted along it
pIC50: −log10 of the molar value.
measured_parameter: pIC50

[
  {
    "compound": "Cc1cc(Nc2cc(C)[nH]n2)nc(C2(O)CCC(C(=O)NCc3ccc(-n4cc(Cl)cn4)nc3)C2)c1 (mixture of isomers) [Compound 126]",
    "measured": "> 8.00"
  },
  {
    "compound": "Cc1cc(Nc2cc(C)[nH]n2)nc([C@H]2CC[C@@H](C(=O)N[C@@H](C)c3ccc(-n4cc(F)cn4)nc3)C2)n1 (single isomer, unassigned) [Compound 108]",
    "measured": "7.00 to 8.00"
  },
  {
    "compound": "Cc1cc(Nc2cc(C)[nH]n2)nc([C@]2(O)CC[C@@](C)(C(=O)N[C@@H](C)c3ccc(-n4cc(F)cn4)nc3)C2)c1 [Compound 128]",
    "measured": "> 8.00"
  },
  {
    "compound": "Cc1cc(Nc2cc(C)[nH]n2)nc([C@H]2CC[C@](C)(C(=O)N[C@@H](C)c3ccc(-n4cc(F)cn4)nc3)C2)n1 [Compound 114]",
    "measured": "> 8.00"
  },
  {
    "compound": "Cc1cc(Nc2cc(C)[nH]n2)nc([C@@]2(O)CC[C@H](C(=O)N[C@@H](C)c3ccc(-n4cc(F)cn4)nc3)C2)c1 (single isomer, unassigned) [Compound 122]",
    "measured": "> 8.00"
  },
  {
    "compound": "Cc1cc(Nc2cc(C)[nH]n2)nc([C@]2(O)CC[C@@H](C(=O)N[C@@H](C)c3ccc(-n4cc(F)cn4)nc3)C2)c1 (single isomer, unassigned) [Compound 121]",
    "measured": "> 8.00"
  },
  {
    "compound": "Cc1cc(Nc2cc(C)[nH]n2)nc([C@]2(O)CC[C@@H](C(=O)N[C@@H](C)c3cnc(-n4cc(F)cn4)cn3)C2)c1 [Compound 125]",
    "measured": "7.00 to 8.00"
  }
]

###

- target_system: RET V804L (Homo sapiens, UniProt P07949, V804L)
- protocol_details: RET V804L Gatekeeper Mutant Assay at KM (Caliper electrophoretic mobility shift)
- assay_context: 10 μM ATP, 25° C., 120 minutes
Entries annotated with measured IC50
measured_parameter: IC50

[
  {
    "molecule": "Cc1cc(Nc2cc(C)[nH]n2)nc(C2(O)CCC(C(=O)N[C@@H](C)c3ccc(-n4cc(F)cn4)nc3)C2)c1 (stereo partly drawn) [Compound 118]",
    "target_system": "RET V804L (Homo sapiens, UniProt P07949, V804L)",
    "measured": "< 10 nM"
  },
  {
    "molecule": "Cc1cc(Nc2cc(C3CC3)[nH]n2)nc([C@@]2(O)CC[C@H](C(=O)NCc3ccc(-n4cc(F)cn4)nc3)C2)c1 [Compound 127]",
    "target_system": "RET V804L (Homo sapiens, UniProt P07949, V804L)",
    "measured": "< 10 nM"
  },
  {
    "molecule": "Cc1cc(Nc2cc(C)[nH]n2)nc(C2CCC(C(=O)N[C@@H](C)c3ccc(-n4cc(F)cn4)nc3)C2)n1 (mixture of isomers) [Compound 106]",
    "target_system": "RET V804L (Homo sapiens, UniProt P07949, V804L)",
    "measured": "< 10 nM"
  }
]

Values compiled from patent US10035789B2.
